# SYSTEM: Cytochrome P450 1A2 (Homo sapiens) (UniProt P05177)
# Sequence (P05177 whole entry, looked up): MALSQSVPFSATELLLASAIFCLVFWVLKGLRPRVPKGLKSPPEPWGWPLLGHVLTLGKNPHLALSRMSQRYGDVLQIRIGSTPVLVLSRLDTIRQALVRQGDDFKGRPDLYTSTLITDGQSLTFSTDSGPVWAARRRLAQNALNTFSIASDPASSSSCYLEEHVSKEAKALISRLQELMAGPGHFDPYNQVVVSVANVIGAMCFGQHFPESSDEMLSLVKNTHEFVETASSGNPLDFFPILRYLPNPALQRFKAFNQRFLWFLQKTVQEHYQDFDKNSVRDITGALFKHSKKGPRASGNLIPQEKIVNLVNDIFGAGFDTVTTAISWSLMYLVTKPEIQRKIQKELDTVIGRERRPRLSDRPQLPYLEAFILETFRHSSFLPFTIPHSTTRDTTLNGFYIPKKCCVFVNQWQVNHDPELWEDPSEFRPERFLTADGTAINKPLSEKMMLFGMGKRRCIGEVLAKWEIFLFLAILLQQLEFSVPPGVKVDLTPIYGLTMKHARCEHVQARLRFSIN
# PROCEDURE TEXT: Cytochrome panel assay with activity outcomes
# PROTOCOL CONDITIONS: recombinant CYP, pro-luciferin dealkylation, luminescence, p450-cyp1a2; series mostly up to 57.1 µM
The whole screen tested about 16,000 compounds, of which about 5,700 (36%) were called active. Inconclusive results (about 24%) are left out. The call rests on the fitted dose curve; in most records, active means well fitted curve in the direction sought with a large enough effect; inconclusive means small, poorly fitted or top-dose-only effect, or effect the other way; inactive means no such curve, though single readings can be large or run the other way. This is one part of the list.
Outcomes: y = active, n = inactive

COMPOUND: COC(=O)c1ccc(C(NC(=O)c2ccccc2)[C@]2(C)C[C@H]2C2CCCCC2)cc1 (stereo not given in full)
LABEL: n

COMPOUND: CNC(=S)NNC(=O)c1sccc1OCc1ccc(C)cc1
LABEL: y

COMPOUND: COC(=O)c1ccc(C23CC2(C(NP(=O)(c2ccccc2)c2ccccc2)c2ccccc2)C3)cc1 (stereo not given)
LABEL: y

COMPOUND: Cc1cc(C)n(Cc2ccc(NC(=O)c3ccc(COc4ccccc4Br)cc3)cc2)n1
LABEL: n

COMPOUND: COc1ccc(COc2ccsc2C(=O)Nc2ccc(Cl)c(Cl)c2)cc1
LABEL: y

COMPOUND: Cc1ccc(C(=O)NNC(=S)NC(=O)c2ccc(Cl)cc2)cc1
LABEL: n

COMPOUND: COc1ccc2c(c1)CCc1c(C(=O)N3CCCCCC3)noc1-2
LABEL: y

COMPOUND: COc1ccc(Cc2nnc(NC(=O)c3ccc(Cl)c([N+](=O)[O-])c3)s2)cc1
LABEL: n

COMPOUND: COc1ccccc1CN1CC[C@@]2(CCCN(S(C)(=O)=O)C2)C1
LABEL: n

COMPOUND: COc1ccc(NC(=O)N2CCCC3(CCN(C(=O)c4ccc(OC)cc4)CC3)C2)cc1
LABEL: n
